assay: In vivo biodistribution of [^203Pb]VMT01 in B16-F10 melanoma xenograft model; parameters: species or system athymic nude mice; settings: both sexes, athymic nude, mouse, muscle, intravenous, 74 KBq, total radioactivity, 6 h post-injection, tail vein, read-out: Biodistribution, Muscle, Average
Where a SMILES comes first, the peptide text is derived from it. Bridges are numbered along the chain shown (N, C = ends). Triazole bridges read from a SMILES are 1,4-linked. Side-chain parts run from the residue outwards. [ ]: non-standard residue; d: D form. The star is where a group is joined. X1 = NC(=O)CN1CCN(CC(=O)O)CCN(CC(=O)*)CCN(CC(=O)O)CC1; Lys(N3) = [N-]=[N+]=NCCCC[C@H](N)C(=O)O; Nle = CCCC[C@H](N)C(=O)O; Pra = C#CC[C@H](N)C(=O)O; AEEA = NCCOCCOCC(=O)O
value_kind: tissue uptake at 6 h (%ID/g)
Answers are plain numbers, in %ID/g.

input: Fill in: tissue uptake at 6 h of CCCC[C@H](NC(C)=O)C(=O)N[C@H]1Cc2cn(nn2)CCCC[C@@H](C(=O)N[C@@H](CCCCNC(=O)COCCOCCNC(=O)CN2CCN(CC(=O)O)CCN(CC(N)=O)CCN(CC(=O)O)CC2)C(N)=O)NC(=O)[C@H](Cc2c[nH]c3ccccc23)NC(=O)[C@H](CCCNC(=N)N)NC(=O)[C@@H](Cc2ccccc2)NC(=O)[C@H](Cc2c[nH]cn2)NC1=O [[^203Pb]VMT01, metal not drawn] (Ac-[Nle][Pra]H[dF]RW[Lys(N3)]K([AEEA-X1])-NH2; triazole 2-7) is ___
output: 0.03

====

test: In vivo biodistribution of [^203Pb]VMT01 in B16-F10 melanoma xenograft model; set-up: species or system athymic nude mice; conditions: both sexes, athymic nude, mouse, blood, intravenous, 74 KBq, total radioactivity, 3 h post-injection, tail vein, read-out: Biodistribution, Blood, Average
Where a SMILES comes first, the peptide text is derived from it. Bridges are numbered along the chain shown (N, C = ends). Triazole bridges read from a SMILES are 1,4-linked. Side-chain parts run from the residue outwards. [ ]: non-standard residue; d: D form. The star is where a group is joined. X1 = NC(=O)CN1CCN(CC(=O)O)CCN(CC(=O)*)CCN(CC(=O)O)CC1; Lys(N3) = [N-]=[N+]=NCCCC[C@H](N)C(=O)O; Nle = CCCC[C@H](N)C(=O)O; Pra = C#CC[C@H](N)C(=O)O; AEEA = NCCOCCOCC(=O)O
value_kind: tissue uptake at 3 h (%ID/g)
Numbers only, in %ID/g.

input: Fill in: tissue uptake at 3 h of CCCC[C@H](NC(C)=O)C(=O)N[C@H]1Cc2cn(nn2)CCCC[C@@H](C(=O)N[C@@H](CCCCNC(=O)COCCOCCNC(=O)CN2CCN(CC(=O)O)CCN(CC(N)=O)CCN(CC(=O)O)CC2)C(N)=O)NC(=O)[C@H](Cc2c[nH]c3ccccc23)NC(=O)[C@H](CCCNC(=N)N)NC(=O)[C@@H](Cc2ccccc2)NC(=O)[C@H](Cc2c[nH]cn2)NC1=O [[^203Pb]VMT01, metal not drawn] (Ac-[Nle][Pra]H[dF]RW[Lys(N3)]K([AEEA-X1])-NH2; triazole 2-7) is ___
output: 0.03

====

test: In vivo biodistribution of [^203Pb]VMT01 in B16-F10 melanoma xenograft model; set-up: species or system athymic nude mice; conditions: both sexes, athymic nude, mouse, brain, intravenous, 74 KBq, total radioactivity, 1.5 h post-injection, tail vein, read-out: Biodistribution, Brain, Average
Where a SMILES comes first, the peptide text is derived from it. Bridges are numbered along the chain shown (N, C = ends). Triazole bridges read from a SMILES are 1,4-linked. Side-chain parts run from the residue outwards. [ ]: non-standard residue; d: D form. The star is where a group is joined. X1 = NC(=O)CN1CCN(CC(=O)O)CCN(CC(=O)*)CCN(CC(=O)O)CC1; Lys(N3) = [N-]=[N+]=NCCCC[C@H](N)C(=O)O; Nle = CCCC[C@H](N)C(=O)O; Pra = C#CC[C@H](N)C(=O)O; AEEA = NCCOCCOCC(=O)O
value_kind: tissue uptake at 1.5 h (%ID/g)
Answers are plain numbers, in %ID/g.

input: Could you share which tissue uptake at 1.5 h value was measured for CCCC[C@H](NC(C)=O)C(=O)N[C@H]1Cc2cn(nn2)CCCC[C@@H](C(=O)N[C@@H](CCCCNC(=O)COCCOCCNC(=O)CN2CCN(CC(=O)O)CCN(CC(N)=O)CCN(CC(=O)O)CC2)C(N)=O)NC(=O)[C@H](Cc2c[nH]c3ccccc23)NC(=O)[C@H](CCCNC(=N)N)NC(=O)[C@@H](Cc2ccccc2)NC(=O)[C@H](Cc2c[nH]cn2)NC1=O [[^203Pb]VMT01, metal not drawn] (Ac-[Nle][Pra]H[dF]RW[Lys(N3)]K([AEEA-X1])-NH2; triazole 2-7) ?
output: 0.02

====

test: In vivo biodistribution of [^203Pb]VMT01 in B16-F10 melanoma xenograft model; parameters: species or system athymic nude mice; conditions: both sexes, athymic nude, mouse, muscle, intravenous, 74 KBq, total radioactivity, 1.5 h post-injection, tail vein, read-out: Biodistribution, Muscle, Average
Where a SMILES comes first, the peptide text is derived from it. Bridges are numbered along the chain shown (N, C = ends). Triazole bridges read from a SMILES are 1,4-linked. Side-chain parts run from the residue outwards. [ ]: non-standard residue; d: D form. The star is where a group is joined. X1 = NC(=O)CN1CCN(CC(=O)O)CCN(CC(=O)*)CCN(CC(=O)O)CC1; Lys(N3) = [N-]=[N+]=NCCCC[C@H](N)C(=O)O; Nle = CCCC[C@H](N)C(=O)O; Pra = C#CC[C@H](N)C(=O)O; AEEA = NCCOCCOCC(=O)O
value_kind: tissue uptake at 1.5 h (%ID/g)
Numbers only, in %ID/g.

input: Any idea what its tissue uptake at 1.5 h is? The compound is CCCC[C@H](NC(C)=O)C(=O)N[C@H]1Cc2cn(nn2)CCCC[C@@H](C(=O)N[C@@H](CCCCNC(=O)COCCOCCNC(=O)CN2CCN(CC(=O)O)CCN(CC(N)=O)CCN(CC(=O)O)CC2)C(N)=O)NC(=O)[C@H](Cc2c[nH]c3ccccc23)NC(=O)[C@H](CCCNC(=N)N)NC(=O)[C@@H](Cc2ccccc2)NC(=O)[C@H](Cc2c[nH]cn2)NC1=O [[^203Pb]VMT01, metal not drawn] (Ac-[Nle][Pra]H[dF]RW[Lys(N3)]K([AEEA-X1])-NH2; triazole 2-7)
output: 0.09

====

assay: In vivo biodistribution of [^203Pb]VMT01 in B16-F10 melanoma xenograft model; design: species or system athymic nude mice; settings: both sexes, athymic nude, mouse, muscle, intravenous, 74 KBq, total radioactivity, 0.5 h post-injection, tail vein, read-out: Biodistribution, Muscle, Average
Where a SMILES comes first, the peptide text is derived from it. Bridges are numbered along the chain shown (N, C = ends). Triazole bridges read from a SMILES are 1,4-linked. Side-chain parts run from the residue outwards. [ ]: non-standard residue; d: D form. The star is where a group is joined. X1 = NC(=O)CN1CCN(CC(=O)O)CCN(CC(=O)*)CCN(CC(=O)O)CC1; Lys(N3) = [N-]=[N+]=NCCCC[C@H](N)C(=O)O; Nle = CCCC[C@H](N)C(=O)O; Pra = C#CC[C@H](N)C(=O)O; AEEA = NCCOCCOCC(=O)O
value_kind: tissue uptake at 0.5 h (%ID/g)
Numbers only, in %ID/g.

input: Look up tissue uptake at 0.5 h for this molecule: CCCC[C@H](NC(C)=O)C(=O)N[C@H]1Cc2cn(nn2)CCCC[C@@H](C(=O)N[C@@H](CCCCNC(=O)COCCOCCNC(=O)CN2CCN(CC(=O)O)CCN(CC(N)=O)CCN(CC(=O)O)CC2)C(N)=O)NC(=O)[C@H](Cc2c[nH]c3ccccc23)NC(=O)[C@H](CCCNC(=N)N)NC(=O)[C@@H](Cc2ccccc2)NC(=O)[C@H](Cc2c[nH]cn2)NC1=O [[^203Pb]VMT01, metal not drawn] (Ac-[Nle][Pra]H[dF]RW[Lys(N3)]K([AEEA-X1])-NH2; triazole 2-7)
output: 0.73

====

assay: In vivo biodistribution of [^203Pb]VMT01 in B16-F10 melanoma xenograft model; design: species or system athymic nude mice; details: both sexes, athymic nude, mouse, brain, intravenous, 74 KBq, total radioactivity, 6 h post-injection, tail vein, read-out: Biodistribution, Brain, Average
Where a SMILES comes first, the peptide text is derived from it. Bridges are numbered along the chain shown (N, C = ends). Triazole bridges read from a SMILES are 1,4-linked. Side-chain parts run from the residue outwards. [ ]: non-standard residue; d: D form. The star is where a group is joined. X1 = NC(=O)CN1CCN(CC(=O)O)CCN(CC(=O)*)CCN(CC(=O)O)CC1; Lys(N3) = [N-]=[N+]=NCCCC[C@H](N)C(=O)O; Nle = CCCC[C@H](N)C(=O)O; Pra = C#CC[C@H](N)C(=O)O; AEEA = NCCOCCOCC(=O)O
value_kind: tissue uptake at 6 h (%ID/g)
Answers are plain numbers, in %ID/g.

input: Find the recorded tissue uptake at 6 h belonging to CCCC[C@H](NC(C)=O)C(=O)N[C@H]1Cc2cn(nn2)CCCC[C@@H](C(=O)N[C@@H](CCCCNC(=O)COCCOCCNC(=O)CN2CCN(CC(=O)O)CCN(CC(N)=O)CCN(CC(=O)O)CC2)C(N)=O)NC(=O)[C@H](Cc2c[nH]c3ccccc23)NC(=O)[C@H](CCCNC(=N)N)NC(=O)[C@@H](Cc2ccccc2)NC(=O)[C@H](Cc2c[nH]cn2)NC1=O [[^203Pb]VMT01, metal not drawn] (Ac-[Nle][Pra]H[dF]RW[Lys(N3)]K([AEEA-X1])-NH2; triazole 2-7) and report it.
output: 0.01
